Data origin, for the record: paper PMC10215143

test: in vitro; details: human, 50% (v/v) human serum in phosphate buffer, pH 7.2
Where a SMILES comes first, the peptide text is derived from it. The star is where a group is joined. Decanoyl = CCCCCCCCCC(=O)*
readout-kind: remaining at 1 h

[Q] Answer with reported remaining at 1 h of CCCCCCCCCC(=O)N[C@H](C(=O)N[C@@H](CCCCN)C(=O)N[C@@H](CCC(N)=O)C(=O)N[C@H](C(=O)N[C@@H](CCCCN)C(=O)N[C@@H](CCCCN)C(=O)N[C@@H](CC(C)C)C(=O)N[C@@H](Cc1ccccc1)C(=O)N[C@@H](CCCCN)C(=O)N[C@@H](CCCCN)C(N)=O)C(C)C)[C@@H](C)CC [C10:0-A2, C10:0-IKQVKKLFKK-NH2] (Decanoyl-IKQVKKLFKK-NH2)
[A] ~20%

###

system: Yeast; conditions: 24 h
Where a SMILES comes first, the peptide text is derived from it. [ ]: non-standard residue; d: D form. NMeF = CN[C@@H](Cc1ccccc1)C(=O)O
readout-kind: MIC Average Yeast

[Q] Give me measured MIC Average Yeast, please, for this molecule: CC(C)C[C@H](NC(=O)[C@H](CCCCN)NC(=O)[C@H](CCCCN)NC(=O)[C@H](Cc1ccccc1)N(C)C(=O)[C@H](CC(C)C)NC(=O)[C@H](CCCCN)NC(=O)[C@H](CCCCN)NC(=O)[C@H](Cc1ccccc1)N(C)C(=O)[C@H](CC(C)C)NC(=O)[C@@H](N)CCCCN)C(=O)N[C@@H](Cc1ccccc1)C(=O)N[C@@H](CCCCN)C(N)=O [TA4(3,7-NMePhe), KL(NMeF)KKL(NMeF)KKLFK-NH2] (H-KL[NMeF]KKL[NMeF]KKLFK-NH2; N-terminus assumed)
[A] 80.2 µM

###

assay: Critical micelle concentration by conductimetry in Milli-Q water; format: physicochemical; conditions: 25 °C
Where a SMILES comes first, the peptide text is derived from it. [ ]: non-standard residue; d: D form. The star is where a group is joined. NMeF = CN[C@@H](Cc1ccccc1)C(=O)O; NMeK = CN[C@@H](CCCCN)C(=O)O; Decanoyl = CCCCCCCCCC(=O)*
Could you please report measured CMC for the items listed next?
Numeric only. Scale: mM

[Q] Please indicate CMC recorded for CCCCCCCCCC(=O)N[C@H](C(=O)N[C@@H](CCCCN)C(=O)N[C@@H](CCC(N)=O)C(=O)N[C@H](C(=O)N[C@@H](CCCCN)C(=O)N[C@@H](CCCCN)C(=O)N[C@@H](CC(C)C)C(=O)N[C@@H](Cc1ccccc1)C(=O)N(C)[C@@H](CCCCN)C(=O)N[C@@H](CCCCN)C(N)=O)C(C)C)[C@@H](C)CC [C10:0-A2(9-NMeLys), C10:0-IKQVKKLF(NMe-K)K-NH2] (Decanoyl-IKQVKKLF[NMeK]K-NH2)
[A] 3.90

[Q] Give a short answer stating reported CMC for CCCCCCCCCC(=O)N[C@H](C(=O)N[C@@H](CCCCN)C(=O)N[C@@H](CCC(N)=O)C(=O)N[C@H](C(=O)N[C@@H](CCCCN)C(=O)N[C@@H](CCCCN)C(=O)N[C@@H](CC(C)C)C(=O)N(C)[C@@H](Cc1ccccc1)C(=O)N[C@@H](CCCCN)C(=O)N[C@@H](CCCCN)C(N)=O)C(C)C)[C@@H](C)CC [C10:0-A2(8-NMePhe), C10:0-IKQVKKL(NMe-F)KK-NH2] (Decanoyl-IKQVKKL[NMeF]KK-NH2) .
[A] 2.01

[Q] Using the record for CCCCCCCCCC(=O)N[C@H](C(=O)N[C@@H](CCCCN)C(=O)N[C@@H](CCC(N)=O)C(=O)N[C@H](C(=O)N[C@@H](CCCCN)C(=O)N[C@@H](CCCCN)C(=O)N[C@@H](CC(C)C)C(=O)N[C@@H](Cc1ccccc1)C(=O)N[C@@H](CCCCN)C(=O)N[C@@H](CCCCN)C(N)=O)C(C)C)[C@@H](C)CC [C10:0-A2, C10:0-IKQVKKLFKK-NH2] (Decanoyl-IKQVKKLFKK-NH2) , state its measured CMC.
[A] 5.74

[Q] Name the recorded CMC of the item CCCCCCCCCC(=O)N[C@H](C(=O)N[C@@H](CCCCN)C(=O)N[C@@H](CCC(N)=O)C(=O)N[C@H](C(=O)N(C)[C@@H](CCCCN)C(=O)N[C@@H](CCCCN)C(=O)N[C@@H](CC(C)C)C(=O)N[C@@H](Cc1ccccc1)C(=O)N[C@@H](CCCCN)C(=O)N[C@@H](CCCCN)C(N)=O)C(C)C)[C@@H](C)CC [C10:0-A2(5-NMeLys), C10:0-IKQV(NMe-K)KLFKK-NH2] (Decanoyl-IKQV[NMeK]KLFKK-NH2) in your answer.
[A] 3.73

[Q] Read the entry CCCCCCCCCC(=O)N[C@H](C(=O)N[C@@H](CCCCN)C(=O)N[C@@H](CCC(N)=O)C(=O)N[C@H](C(=O)N[C@@H](CCCCN)C(=O)N(C)[C@@H](CCCCN)C(=O)N[C@@H](CC(C)C)C(=O)N[C@@H](Cc1ccccc1)C(=O)N[C@@H](CCCCN)C(=O)N[C@@H](CCCCN)C(N)=O)C(C)C)[C@@H](C)CC [C10:0-A2(6-NMeLys), C10:0-IKQVK(NMe-K)LFKK-NH2] (Decanoyl-IKQVK[NMeK]LFKK-NH2) and write its reported CMC.
[A] 3.63

###

system: C. albicans PEEC 2; format: cell-based, Candida albicans; conditions: PEEC 2, 24 h
Where a SMILES comes first, the peptide text is derived from it. [ ]: non-standard residue; d: D form. The star is where a group is joined. NMeK = CN[C@@H](CCCCN)C(=O)O; Decanoyl = CCCCCCCCCC(=O)*
Provide the recorded MIC for the entries that follow.
Note: unit µM is implicit; provide only the numeric part.

[Q] Return value of MIC for input CCCCCCCCCC(=O)N[C@H](C(=O)N[C@@H](CCCCN)C(=O)N[C@@H](CCC(N)=O)C(=O)N[C@H](C(=O)N[C@@H](CCCCN)C(=O)N[C@@H](CCCCN)C(=O)N[C@@H](CC(C)C)C(=O)N[C@@H](Cc1ccccc1)C(=O)N[C@@H](CCCCN)C(=O)N[C@@H](CCCCN)C(N)=O)C(C)C)[C@@H](C)CC [C10:0-A2, C10:0-IKQVKKLFKK-NH2] (Decanoyl-IKQVKKLFKK-NH2) , no commentary.
[A] 90.6

[Q] Identify the reported MIC for the following entry. CCCCCCCCCC(=O)N[C@H](C(=O)N[C@@H](CCCCN)C(=O)N[C@@H](CCC(N)=O)C(=O)N[C@H](C(=O)N[C@@H](CCCCN)C(=O)N(C)[C@@H](CCCCN)C(=O)N[C@@H](CC(C)C)C(=O)N[C@@H](Cc1ccccc1)C(=O)N[C@@H](CCCCN)C(=O)N[C@@H](CCCCN)C(N)=O)C(C)C)[C@@H](C)CC [C10:0-A2(6-NMeLys), C10:0-IKQVK(NMe-K)LFKK-NH2] (Decanoyl-IKQVK[NMeK]LFKK-NH2)
[A] 44.9

[Q] Indicate its recorded MIC; the compound in question is CCCCCCCCCC(=O)N[C@H](C(=O)N[C@@H](CCCCN)C(=O)N[C@@H](CCC(N)=O)C(=O)N[C@H](C(=O)N[C@@H](CCCCN)C(=O)N[C@@H](CCCCN)C(=O)N[C@@H](CC(C)C)C(=O)N[C@@H](Cc1ccccc1)C(=O)N(C)[C@@H](CCCCN)C(=O)N[C@@H](CCCCN)C(N)=O)C(C)C)[C@@H](C)CC [C10:0-A2(9-NMeLys), C10:0-IKQVKKLF(NMe-K)K-NH2] (Decanoyl-IKQVKKLF[NMeK]K-NH2)
[A] 89.7

[Q] Note MIC for the compound shown: CCCCCCCCCC(=O)N[C@H](C(=O)N[C@@H](CCCCN)C(=O)N[C@@H](CCC(N)=O)C(=O)N[C@H](C(=O)N(C)[C@@H](CCCCN)C(=O)N[C@@H](CCCCN)C(=O)N[C@@H](CC(C)C)C(=O)N[C@@H](Cc1ccccc1)C(=O)N[C@@H](CCCCN)C(=O)N[C@@H](CCCCN)C(N)=O)C(C)C)[C@@H](C)CC [C10:0-A2(5-NMeLys), C10:0-IKQV(NMe-K)KLFKK-NH2] (Decanoyl-IKQV[NMeK]KLFKK-NH2)
[A] 179.5

[Q] Return MIC (reported value) for this compound: CCCCCCCCCC(=O)N[C@H](C(=O)N[C@H](CCCCN)C(=O)N[C@@H](CCC(N)=O)C(=O)N[C@H](C(=O)N[C@H](CCCCN)C(=O)N[C@H](CCCCN)C(=O)N[C@@H](CC(C)C)C(=O)N[C@@H](Cc1ccccc1)C(=O)N[C@H](CCCCN)C(=O)N[C@H](CCCCN)C(N)=O)C(C)C)[C@@H](C)CC [C10:0-A2(dK), C10:0-IdKQVdKdKLFdKdK-NH2] (Decanoyl-I[dK]QV[dK][dK]LF[dK][dK]-NH2)
[A] 90.6
